# System: rat Monoamine Oxidase, MAO-A, Central (MAOAC), gene 29253
# method: NVS_ENZ_rMAOAC: NovaScreen (NVS) Enzymatic Assay for rat Monoamine Oxidase, MAO-A, Central (MAOAC) (AID 2283243);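 further: potency refers to inhibition seen as signal drop below DMSO baseline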
The source made the active and inactive calls. How the source made its calls: active means hit-call score of the fitted dose curve at least 0.9, where 1 is the maximum; inconclusive means response in the unintended direction; inactive means score below 0.9.
One label from this list, please: y for active, n for inactive

molecule | subject of test | assigned class
CCCCCCCCCCCC[N+](C)(C)C | rat Monoamine Oxidase, MAO-A, Central (MAOAC), gene 29253 | y
O=[N+]([O-])c1ccc(O)cc1 | rat Monoamine Oxidase, MAO-A, Central (MAOAC), gene 29253 | y
Oc1ccc(/C=C/c2cc(O)cc(O)c2)cc1 | rat Monoamine Oxidase, MAO-A, Central (MAOAC), gene 29253 | y
CCN(Cc1cccnc1)C(=O)c1cccc(Cl)c1[C@]1(C)C(=O)N(Cc2ccc(OC)cc2OC)c2ccc(Cl)cc21 | rat Monoamine Oxidase, MAO-A, Central (MAOAC), gene 29253 | y
COc1ccc2nc(N)sc2c1 | rat Monoamine Oxidase, MAO-A, Central (MAOAC), gene 29253 | y
CCOC(=O)C(C)Oc1ccc(Oc2nc3ccc(Cl)cc3o2)cc1 (configuration not stated) | rat Monoamine Oxidase, MAO-A, Central (MAOAC), gene 29253 | n

Next molecule, please.
Please state the recorded outcome for this molecule: CC(=O)[C@H]1CC[C@H]2[C@@H]3CCC4=CC(=O)CC[C@]4(C)[C@H]3CC[C@]12C
n

* * *

# method: BSK_KF3CT_SRB: Viability Assessment in the BioMAP Diversity Plus: KF3CT Assay (AID 2283069);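 further: total protein by sulforhodamine B staining as a cytotoxicity measure; read 24 h after compound addition; fitted for both signal gain and loss against DMSO baseline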
# assay conditions: primary human keratinocytes with fibroblasts
Calls of active or inactive are those of the source. The calls were made as follows: active = hit-call score of the fitted dose curve at least 0.9, where 1 is the maximum; inactive = score below 0.9.
Please state which outcome applies, choosing from TRUE for active, FALSE for inactive

Please let me know the test result on file for O=c1[nH]c(Cl)c(Cl)cc1Cl .
FALSE

Next compound up: CC(C)(C)C(=O)CCl
FALSE

Proceed to CC(C)(c1cc(Cl)c(O)c(Cl)c1)c1cc(Cl)c(O)c(Cl)c1
TRUE

* * *

# method: ATG_MRE_CIS: Attagene CIS-FACTORIAL HepG2 Assay for human Metal Responsive Element (MRE) (AID 2282954)
# assay conditions: HepG2 MRE cis-reporter transcription, Attagene multiplex; actives raise or lower the signal
Active and inactive are the calls of the source. The calls were made as follows: active = hit-call score of the fitted dose curve at least 0.9, where 1 is the maximum; inactive = score below 0.9.
result type: AC50

See these solved cases before continuing.
compound | result type | value reported
C[N+](C)=CCl | AC50 | inactive
CCCCCc1cc(O)cc(O)c1 | AC50 | 100 µM (active)
Nc1ccc(Cl)c(Cl)c1 | AC50 | inactive
Clc1ccc(-c2ccccc2)cc1 | AC50 | inactive
[N-]=[N+]=CC(=O)OC[C@H](N)C(=O)O | AC50 | inactive

Need AC50 of C=C(Cl)Cl , thanks.
inactive

Next record, please: CNC(=O)Oc1cc(C)c(SC)c(C)c1
74.2 µM (active)

Would you kindly repeat that for CCOC(=O)N(C)N=O ?
inactive

Further, for CCOP(=O)(OCC)Oc1ccc([N+](=O)[O-])cc1 ?
inactive

* * *

# subject of test: human RAR-related Orphan Receptor gamma (RORg), RORC (gene 6097)
# method: ATG_RORg_TRANS: Attagene TRANS-FACTORIAL HepG2 Assay for human RAR-related Orphan Receptor gamma (RORg) (AID 2283011)
Inconclusive results are not listed. Active and inactive are the calls of the source. The calls were made as follows: active = hit-call score of the fitted dose curve at least 0.9, where 1 is the maximum; inconclusive = response in the unintended direction; inactive = score below 0.9.
Please answer using one outcome listed in active, inactive

molecule | assigned class
O=C1C(Cl)=C(Cl)C(=O)C(Cl)=C1Cl | inactive
C=CC(=O)OCC(CC)CCCC (stereo not drawn) | inactive
C=C(Cl)CCl | inactive
C=CCc1ccc(OC(=O)Cc2ccccc2)c(OC)c1 | inactive
N#CCCCCC#N | inactive
CC(=O)C=Cc1ccccc1 | inactive
C=CC(=O)OC | inactive

We next turn to a different molecule, shown below.
What was the test verdict on CC(C)(C)C(=O)CCl ?
active

meta.source: PubChem BioAssay (EPA / NIEHS)
